# Subject of test: CB2 cannabinoid receptor (Homo sapiens)
# Sequence (P34972 whole entry): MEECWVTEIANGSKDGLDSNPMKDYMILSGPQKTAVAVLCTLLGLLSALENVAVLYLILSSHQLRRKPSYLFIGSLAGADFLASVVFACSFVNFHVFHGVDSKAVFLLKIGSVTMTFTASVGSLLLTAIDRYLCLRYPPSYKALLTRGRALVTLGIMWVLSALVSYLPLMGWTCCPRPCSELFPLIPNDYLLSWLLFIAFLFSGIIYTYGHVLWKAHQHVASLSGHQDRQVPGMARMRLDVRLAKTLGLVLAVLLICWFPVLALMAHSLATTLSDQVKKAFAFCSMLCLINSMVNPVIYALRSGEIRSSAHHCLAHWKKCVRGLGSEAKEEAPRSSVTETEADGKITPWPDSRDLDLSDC
Readout: pKi
pKi is defined as minus the log10 of a concentration measured in mol/L.

Field request: pKi | item: O=S(=O)(F)CCCCCc1ccc(O)cc1 5.24

###

# Subject of test: CB1 cannabinoid receptor (Homo sapiens)
# Sequence (P21554 whole entry): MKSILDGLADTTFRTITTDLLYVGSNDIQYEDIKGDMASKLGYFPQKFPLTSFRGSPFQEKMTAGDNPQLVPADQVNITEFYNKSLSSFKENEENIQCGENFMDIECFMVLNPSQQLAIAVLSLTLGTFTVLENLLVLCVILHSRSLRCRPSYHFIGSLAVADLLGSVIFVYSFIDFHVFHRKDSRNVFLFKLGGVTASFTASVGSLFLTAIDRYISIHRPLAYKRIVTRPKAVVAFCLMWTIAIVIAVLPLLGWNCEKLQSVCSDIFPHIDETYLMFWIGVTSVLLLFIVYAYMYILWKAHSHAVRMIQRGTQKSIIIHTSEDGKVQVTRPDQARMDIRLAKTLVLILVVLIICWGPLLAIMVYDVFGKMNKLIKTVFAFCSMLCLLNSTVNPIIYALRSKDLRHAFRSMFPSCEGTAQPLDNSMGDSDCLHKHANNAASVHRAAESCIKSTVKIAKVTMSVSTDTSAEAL
Readout: Ki (µM)
Give just the number in µM; leave the unit off.

What value of Ki on CB1 cannabinoid receptor (Homo sapiens) does O=S(=O)(F)CCCCCc1ccc(O)cc1 [AM3506] have? 0.192
